Kindly supply the reported TGI values for the records listed here.
Test system: SF-539 CNS
Experiment: NCI tumour cell line growth inhibition, 48 h

Examples with their reported TGI follow.
CC(=O)N1CCc2[nH]c3ccccc3c2CC1: > 100 µM
O=S1CCN(Cc2ccc(-c3ccc4ncnc(Nc5ccc(OCc6cccc(F)c6)c(Cl)c5)c4c3)o2)CC1: > 20.9 µM
COc1ccc2nc3ccccc3c(NCCN(C)CCCl)c2c1: 1.85 µM
COc1ccc(=[O+]C)c2nssc1-2: 48.7 µM
CCC12CCCN3CCc4c(n(c5ccccc45)C(O)(C(=O)OC)C1)C32 (stereo unspecified): > 100 µM

Provide reported TGI for each item, in the same order as listed.
1. N#CCCOc1cccc(C2(N3CCCCC3)CCCCC2)c1
2. O=C(CNc1cccc(Cl)c1)Nn1c(-c2ccccc2)nc2ccccc2c1=O
3. COc1cc(C(=O)NO)ccc1O

## Output
1. > 100 µM
2. 13.6 µM
3. > 100 µM

# return TGI for each item in the list
1. CC(C)OC(=O)C1=C2c3ncccc3C(=O)N2[C@@H](Cl)[C@@H](Cl)[C@@H]1Cl
2. COc1cc(Br)cc2cc(C3=CSC4=NCCN34)c(=O)oc12
3. CCCC[C@@H](C)/C=C1\CN2CCC[C@H]2[C@@](C)(O)[C@@H]1O

## Output
1. > 100 µM
2. 37.4 µM
3. > 100 µM

Data provenance: PubChem BioAssay (NCI)
